tgt: hHDAC6 (Homo sapiens (Human), UniProt Q9UBN7)
Sequence (Q9UBN7 whole entry): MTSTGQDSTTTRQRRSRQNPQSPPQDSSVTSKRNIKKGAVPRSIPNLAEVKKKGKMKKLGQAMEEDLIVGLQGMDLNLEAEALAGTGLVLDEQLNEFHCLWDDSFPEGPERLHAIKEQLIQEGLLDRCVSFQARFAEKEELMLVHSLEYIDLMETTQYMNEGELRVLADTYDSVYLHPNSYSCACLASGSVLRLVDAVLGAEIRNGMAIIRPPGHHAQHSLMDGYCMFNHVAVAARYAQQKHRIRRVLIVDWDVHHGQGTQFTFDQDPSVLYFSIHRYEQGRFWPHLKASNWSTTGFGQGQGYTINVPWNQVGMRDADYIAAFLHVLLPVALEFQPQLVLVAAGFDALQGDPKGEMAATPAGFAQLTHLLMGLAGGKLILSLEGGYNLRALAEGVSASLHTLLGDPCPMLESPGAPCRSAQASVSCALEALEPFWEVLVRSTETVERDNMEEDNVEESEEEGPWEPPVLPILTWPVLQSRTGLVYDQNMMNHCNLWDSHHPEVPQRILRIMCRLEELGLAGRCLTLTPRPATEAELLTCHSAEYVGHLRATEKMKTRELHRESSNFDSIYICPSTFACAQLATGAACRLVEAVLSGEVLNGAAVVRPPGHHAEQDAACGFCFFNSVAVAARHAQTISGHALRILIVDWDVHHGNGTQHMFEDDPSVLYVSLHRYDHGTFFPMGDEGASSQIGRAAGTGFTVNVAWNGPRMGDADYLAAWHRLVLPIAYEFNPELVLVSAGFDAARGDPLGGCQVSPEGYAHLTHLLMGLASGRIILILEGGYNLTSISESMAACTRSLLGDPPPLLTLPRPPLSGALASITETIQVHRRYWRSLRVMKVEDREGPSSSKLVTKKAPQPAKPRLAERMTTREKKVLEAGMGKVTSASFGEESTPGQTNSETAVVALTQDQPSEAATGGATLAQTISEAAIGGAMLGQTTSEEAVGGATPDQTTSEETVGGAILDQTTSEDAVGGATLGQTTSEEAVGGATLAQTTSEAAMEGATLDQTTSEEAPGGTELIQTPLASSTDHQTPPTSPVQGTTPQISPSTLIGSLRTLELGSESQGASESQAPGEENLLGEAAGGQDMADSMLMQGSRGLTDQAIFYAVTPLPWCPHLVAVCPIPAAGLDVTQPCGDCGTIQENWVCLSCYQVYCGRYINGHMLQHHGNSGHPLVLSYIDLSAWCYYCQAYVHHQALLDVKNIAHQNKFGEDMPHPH
assay-name: HDAC6 inhibition protocol
condition-info: read-out: IC50 (nM) of enzyme activity HDAC6; hHDAC6 1.20 nM, Acetylated Peptide A 2 μM, 1 hour at RT
Classes based on IC50: low band: < 50 nM; middle band: ≥ 50 nM and < 200 nM; high band: ≥ 200 nM

O=C(c1cn(Cc2ccc(-c3nnc(C(F)F)o3)cc2)c2ccccc12)C(F)F	high band
FC(F)c1nnc(-c2ccc(Cn3cnc(-c4ccccc4)c3)nc2)o1	low band
FC(F)c1nnc(-c2ccc(Cn3cc(-c4cccc(Cl)c4)nn3)nc2)o1	low band
FC(F)c1nnc(-c2ccc(Cn3nnc(-c4ccccc4)c3-c3ccccc3)cc2)o1	high band

Please turn your attention to the following entry.
# input Band of FC(F)c1nnc(-c2ccc(Cn3nc4ccc(Br)cc4n3)nc2)o1 ?
# output low band

###

tgt: hHDAC6 (Homo sapiens (Human))
assay-name: HDAC6 inhibition protocol
condition-info: read-out: IC50 (nM) of enzyme activity HDAC6; hHDAC6 1.20 nM, Acetylated Peptide A 2 μM, 1 hour at RT
readout-type: IC50 (nM)
Return type: number; implicit unit nM.

FC(F)c1nnc(-c2ccc(Cn3cc(-c4ccccc4)nn3)nc2)o1	40.9
Fc1cc(F)cc(-c2cn(Cc3ccc(-c4nnc(C(F)F)o4)cn3)nn2)c1	66.5
O=C1N(Cc2ccc(-c3nnc(C(F)F)o3)cc2)c2ccccc2C12CCOCC2	229
FC(F)c1nnc(-c2ccc(Cn3nnc4cc(Br)ccc43)nc2)o1	48.7
COC(=O)c1cn(Cc2ccc(-c3nnc(C(F)F)o3)cc2)nn1	2800

# input Please indicate IC50 recorded for O=C(c1nc2cc(Cl)c(Cl)cc2n1Cc1ccc(-c2nnc(C(F)F)o2)cc1)C(F)F
# output 236

# input Please indicate IC50 recorded for FC(F)c1nnc(-c2ccc(Cn3cc(-c4cc(Cl)cc(Cl)c4)nn3)nc2)o1
# output 25.7

# input Please indicate IC50 recorded for FC(F)c1nnc(-c2ccc(Cn3cc(-c4ccc(Cl)cc4)nn3)cc2)o1
# output 95.6

###

tgt: hHDAC7 (Homo sapiens (Human), UniProt Q8WUI4)
Sequence (Q8WUI4 whole entry): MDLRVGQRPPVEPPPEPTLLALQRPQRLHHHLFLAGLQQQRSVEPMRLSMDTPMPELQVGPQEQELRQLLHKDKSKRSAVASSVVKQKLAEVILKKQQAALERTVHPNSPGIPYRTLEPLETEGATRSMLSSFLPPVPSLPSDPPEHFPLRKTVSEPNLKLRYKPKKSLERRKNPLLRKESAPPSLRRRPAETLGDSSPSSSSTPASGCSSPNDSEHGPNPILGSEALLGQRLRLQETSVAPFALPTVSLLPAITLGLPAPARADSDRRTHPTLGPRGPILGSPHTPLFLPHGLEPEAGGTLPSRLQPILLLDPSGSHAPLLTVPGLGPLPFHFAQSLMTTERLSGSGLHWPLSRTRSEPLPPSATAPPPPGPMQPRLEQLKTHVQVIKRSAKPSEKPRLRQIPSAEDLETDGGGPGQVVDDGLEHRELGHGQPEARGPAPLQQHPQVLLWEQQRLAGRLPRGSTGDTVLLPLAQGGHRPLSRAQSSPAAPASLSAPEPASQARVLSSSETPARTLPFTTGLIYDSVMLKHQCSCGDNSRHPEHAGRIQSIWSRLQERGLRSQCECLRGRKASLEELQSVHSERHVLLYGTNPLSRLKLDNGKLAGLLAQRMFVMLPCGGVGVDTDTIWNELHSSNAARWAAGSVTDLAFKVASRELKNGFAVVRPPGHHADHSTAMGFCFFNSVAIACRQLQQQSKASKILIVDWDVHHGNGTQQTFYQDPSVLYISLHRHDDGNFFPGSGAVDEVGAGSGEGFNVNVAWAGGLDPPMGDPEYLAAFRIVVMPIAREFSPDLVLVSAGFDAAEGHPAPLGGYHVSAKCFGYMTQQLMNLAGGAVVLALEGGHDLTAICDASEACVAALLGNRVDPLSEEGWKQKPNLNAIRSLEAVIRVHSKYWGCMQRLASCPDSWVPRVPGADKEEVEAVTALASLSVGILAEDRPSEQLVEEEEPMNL
assay-name: hHDAC7 inhibition protocol
condition-info: read-out: IC50 (nM) of enzyme activity HDAC7; selectivity table
readout-type: IC50

FC(F)c1nnc(-c2ccc(Cn3cnc4cc(Cl)c(Cl)cc43)nc2)o1 [Example 22]	9400 nM
FC(F)c1nnc(-c2ccc(Cn3nnc(-c4cccc(Cl)c4)c3Cl)nc2)o1 [Example 54]	1400 nM
FC(F)c1nnc(-c2ccc(Cn3cc(-c4ccccc4)nn3)cc2)o1 [Example 27]	> 10000 nM
Fc1ccccc1-c1cn(Cc2ccc(-c3nnc(C(F)F)o3)cn2)nn1 [Example 48]	> 10000 nM

# input Please indicate IC50 recorded for FC(F)c1nnc(-c2ccc(Cn3nnc4ccccc43)cc2)o1 [Example 11]
# output > 10000 nM

# input Please indicate IC50 recorded for FC(F)c1nnc(-c2ccc(Cn3cc4ccccc4n3)cc2)o1 [Example 7]
# output > 10000 nM

# input Please indicate IC50 recorded for FC(F)c1nnc(-c2ccc(Cn3nc4cc(Cl)c(Cl)cc4n3)nc2)o1 [Example 25]
# output > 10000 nM

# input Please indicate IC50 recorded for FC(F)c1nnc(-c2ccc(Cn3nnc4cc(Cl)c(Cl)cc43)nc2)o1 [Example 24]
# output > 10000 nM
